# Test system: LO2 cells
# test description: MTT cytotoxicity assay, normal hepatocyte LO2
# Assay type: cell-based
# experimental setup: Homo sapiens, L02, 48 h exposure, normal hepatocyte cell line
property label: IC50 (µM)
Numeric answer only, unit µM assumed.

// query IC50 value for entry Cc1ccc2[nH]c3c(c2c1)C[C@@]1(C)C(CC[C@]2(C)C1CC=C1C4[C@@H](C)[C@H](C)CC[C@]4(C(=O)NCCCN4CCCCC4)CC[C@]12C)C3(C)C (some centres unmarked)
12.8

What measured IC50 goes with Cc1ccc2[nH]c3c(c2c1)C[C@@]1(C)C(CC[C@]2(C)C1CC=C1C4[C@@H](C)[C@H](C)CC[C@]4(C(=O)NCCCN4CCN(C)CC4)CC[C@]12C)C3(C)C (some centres unmarked) ?
10.6

Could you share which IC50 value was measured for Cc1ccc2[nH]c3c(c2c1)C[C@@]1(C)C(CC[C@]2(C)C1CC=C1C4[C@@H](C)[C@H](C)CC[C@]4(C(=O)NCCN4CCCCC4)CC[C@]12C)C3(C)C (some centres unmarked) ?
16

What value of measured IC50 is listed for CC[C@@]1(O)C(=O)OCc2c1cc1n(c2=O)Cc2cc3ccccc3nc2-1 [CPT, camptothecin, reference compound] ?
8.93

----------
# System: HepG2 cells
# test description: MTT cytotoxicity assay, HepG2
# Type: cell-based, human
# experimental setup: Homo sapiens, HepG2, 48 h, 48 h exposure
property label: IC50 (µM)
Note: unit µM is implicit; provide only the numeric part.

>>> recorded_number("Cc1ccc2[nH]c3c(c2c1)C[C@@]1(C)C(CC[C@]2(C)C1CC=C1C4[C@@H](C)[C@H](C)CC[C@]4(C(=O)NCCCCN4CCCCC4)CC[C@]12C)C3(C)C (stereo partly shown)")
2.31

# context switch: different compound, same IC50
Which measured IC50 value corresponds to Cc1ccc2[nH]c3c(c2c1)C[C@@]1(C)C(CC[C@]2(C)C1CC=C1C4[C@@H](C)[C@H](C)CC[C@]4(C(=O)NCCCCN4CCOCC4)CC[C@]12C)C3(C)C (stereo partly shown) ?
7.84

----------
// IC50 lookup, one value per entry
# Test system: HepG2 cells
# test description: MTT cytotoxicity assay, HepG2
# Type: cell-based, human
# experimental setup: Homo sapiens, HepG2, 48 h, 48 h exposure

Worked set:
>>> result("Cc1ccc2[nH]c3c(c2c1)C[C@@]1(C)C(CC[C@]2(C)C1CC=C1C4[C@@H](C)[C@H](C)CC[C@]4(C(=O)NCCNC(=O)[C@]45CC[C@@H](C)[C@H](C)C4C4=CCC6[C@@]7(C)Cc8c([nH]c9ccc(C)cc89)C(C)(C)C7CC[C@@]6(C)[C@]4(C)CC5)CC[C@]12C)C3(C)C (stereo partly drawn)")
"> 50 µM"
>>> result("CC[C@@]1(O)C(=O)OCc2c1cc1n(c2=O)Cc2cc3ccccc3nc2-1 [CPT, camptothecin, reference compound]")
"1.12 µM"

Now for the molecule whose IC50 we want.
Report IC50 for Cc1ccc2[nH]c3c(c2c1)C[C@@]1(C)C(CC[C@]2(C)C1CC=C1C4[C@@H](C)[C@H](C)CC[C@]4(C(=O)NCCN4CCCCC4)CC[C@]12C)C3(C)C (stereo partly drawn) please.
~1 µM

----------
# assayed target: Human Topoisomerase IIα (Homo sapiens)
# Construct: purchased USB, Affymetrix, Waltham, MA, USA
# Sequence (P11388 whole entry): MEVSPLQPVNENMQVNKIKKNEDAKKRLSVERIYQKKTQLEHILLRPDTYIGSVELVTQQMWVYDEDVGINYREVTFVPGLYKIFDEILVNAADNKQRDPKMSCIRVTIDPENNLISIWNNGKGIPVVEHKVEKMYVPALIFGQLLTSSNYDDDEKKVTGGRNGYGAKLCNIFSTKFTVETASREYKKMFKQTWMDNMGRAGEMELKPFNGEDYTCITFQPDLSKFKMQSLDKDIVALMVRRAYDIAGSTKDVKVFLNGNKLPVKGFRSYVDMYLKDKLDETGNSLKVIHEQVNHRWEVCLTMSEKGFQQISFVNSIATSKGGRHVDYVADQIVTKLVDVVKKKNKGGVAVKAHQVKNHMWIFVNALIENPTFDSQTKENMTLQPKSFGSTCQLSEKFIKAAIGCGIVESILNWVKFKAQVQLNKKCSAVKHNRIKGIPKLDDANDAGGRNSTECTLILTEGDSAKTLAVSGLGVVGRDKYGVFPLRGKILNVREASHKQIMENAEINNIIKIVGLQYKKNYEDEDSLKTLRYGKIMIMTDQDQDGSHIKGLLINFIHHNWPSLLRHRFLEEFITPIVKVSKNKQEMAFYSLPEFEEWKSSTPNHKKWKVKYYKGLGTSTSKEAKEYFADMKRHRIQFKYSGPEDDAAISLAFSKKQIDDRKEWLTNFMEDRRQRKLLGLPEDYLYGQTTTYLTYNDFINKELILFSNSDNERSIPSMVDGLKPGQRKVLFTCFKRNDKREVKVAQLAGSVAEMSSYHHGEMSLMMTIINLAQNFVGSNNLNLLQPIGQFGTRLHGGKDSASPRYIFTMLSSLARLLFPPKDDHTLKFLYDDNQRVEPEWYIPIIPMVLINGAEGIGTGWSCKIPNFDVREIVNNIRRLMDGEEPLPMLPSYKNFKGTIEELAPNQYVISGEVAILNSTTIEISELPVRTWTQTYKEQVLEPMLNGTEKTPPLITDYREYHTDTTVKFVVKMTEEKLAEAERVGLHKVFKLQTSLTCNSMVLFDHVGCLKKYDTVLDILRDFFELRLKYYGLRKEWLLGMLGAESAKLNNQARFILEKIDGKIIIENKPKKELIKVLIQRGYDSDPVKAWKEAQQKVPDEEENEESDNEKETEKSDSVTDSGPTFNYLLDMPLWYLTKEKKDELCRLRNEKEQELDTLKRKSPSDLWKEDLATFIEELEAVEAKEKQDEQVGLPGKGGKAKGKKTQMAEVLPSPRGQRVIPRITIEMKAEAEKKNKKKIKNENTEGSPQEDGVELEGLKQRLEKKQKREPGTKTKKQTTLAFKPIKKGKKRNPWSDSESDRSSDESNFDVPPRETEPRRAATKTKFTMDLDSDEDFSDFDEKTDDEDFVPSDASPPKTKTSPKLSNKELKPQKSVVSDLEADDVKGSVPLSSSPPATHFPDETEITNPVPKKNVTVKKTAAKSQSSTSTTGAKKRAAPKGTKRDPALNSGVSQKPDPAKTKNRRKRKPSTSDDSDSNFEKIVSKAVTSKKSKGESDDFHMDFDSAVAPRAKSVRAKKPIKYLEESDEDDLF
# test description: Topoisomerase II relaxation assay (supercoiled pBR322)
# Format: biochemical
# experimental setup: 100 μM compound; read-out: Topo II Inhibition (%) 100 μM
inhibition at 100 µM by entry:
Respond with the bare value in %.

>>> recorded_number("Cc1ccc2[nH]c3c(c2c1)C[C@@]1(C)C(CC[C@]2(C)C1CC=C1C4[C@@H](C)[C@H](C)CC[C@]4(C(=O)NCCN4CCCCC4)CC[C@]12C)C3(C)C (some centres unmarked)")
71.7

Please examine the following record next.
Need inhibition at 100 µM of CCN(CC)CCCNC(=O)[C@]12CC[C@@H](C)[C@H](C)C1C1=CCC3[C@@]4(C)Cc5c([nH]c6ccc(C)cc56)C(C)(C)C4CC[C@@]3(C)[C@]1(C)CC2 (some centres unmarked) , thanks.
75.8
